Recorded inhibition by entry
Target: Glucose transporter (Leishmania mexicana)
Assay: ST_JUDE_LEISH: Cytotoxicity at 2uM final concentration against transgenic Leishmania Mexicana promastigotes LmGT2 that are glucose transport deficient and complemented with the L. Mexicana glucose transporter 2. Activity is measured by DNA content using SYBR green in vitro
Format: functional
metric-name: inhibition (%)

>>> df
                                   compound                         target_under_test  measured
0  CC(C)N1CCC(N(Cc2ccc(-c3ccc(C(F)(F)F)cc3)cc2)C(=O)Cn2c(CCc3cccc(F)c3F)cc(=O)c3ccccc32)CC1  Glucose transporter (Leishmania mexicana)      1.16
1          O=C(Nc1ccc(Cl)cn1)c1sc2ccccc2c1O  Glucose transporter (Leishmania mexicana)      0.99
2  O=C(Nc1ccc(-c2ccccc2)cc1)Nc1cccc(Cn2nc(Cl)c(N3CCCNCC3)cc2=O)c1  Glucose transporter (Leishmania mexicana)      0.24
3  Cc1cccc2nc(-c3ccc(-c4cccc(NC(=O)c5cncn5C)c4)cc3)[nH]c12  Glucose transporter (Leishmania mexicana)      5.41
4  CN(C)CC1CCCN1Cc1ccccc1-c1cnn(C)c(=O)c1Oc1cccc(C#N)c1 (stereo not given)  Glucose transporter (Leishmania mexicana)      3.52
5  COC(=O)c1cccc(CNCc2cccc(-c3ccc(-c4nc5ccccc5[nH]4)s3)c2)c1  Glucose transporter (Leishmania mexicana)      1.96
6   O=C(CN1CCN(C(=O)c2ccco2)CC1)Nc1ccccc1Br  Glucose transporter (Leishmania mexicana)     -3.97
7  Cc1ccccc1C1CCN(C2CCC(NC(=O)c3ccc(-c4cccc(C(F)(F)F)c4)o3)CC2)CC1 (stereo not given)  Glucose transporter (Leishmania mexicana)      3.24
8  CCc1cc(CNC2CCN(CCc3c(F)cnc4ccc(OC)nc34)CC2)cc2c1OCCO2  Glucose transporter (Leishmania mexicana)      19.9
9  O=C(Nc1ccc(CN2CCOCC2)cc1)c1ccc(-c2ccc(Cl)cc2)o1  Glucose transporter (Leishmania mexicana)     -4.75

----------
Target: Hexose transporter 1 (Plasmodium falciparum)
Assay: ST_JUDE_LEISH: Cytotoxicity at 2uM final concentration against transgenic Leishmania Mexicana promastigotes LmPfHT that are glucose transport deficient and complemented with the Plasmodium falciparum hexose transporter. Activity is measured by DNA content using SYBR green in vitro
Format: functional
Below, each of the molecules is paired with its reported inhibition value.
metric-name: inhibition (%)

In [3]: df
Out[3]:
                                    molecule  metric_name  measured
 0  CNS(=O)(=O)c1ccc2c(c1)nc(C1CCN(CC3CCC(NC(=O)/C=C/c4ccc(Cl)c(Cl)c4)CC3)CC1)n2C (stereo unspecified)   inhibition      10.9
 1             Clc1ccc2c(NN=Cc3ccco3)ccnc2c1   inhibition      3.49
 2       c1ccc2c(NCCc3c[nH]cn3)c3ccccc3nc2c1   inhibition      4.05
 3  CCN(CC)CCN(Cc1ccc(-c2ccc(C(F)(F)F)cc2)cc1)C(=O)Cn1c(CCc2ccc(F)c(F)c2F)nc(=O)c2ccccc21   inhibition      7.31
 4  Clc1cc(Cl)c2c(c1)C(NCCCNc1nc3ccccc3[nH]1)CCO2 (stereo unspecified)   inhibition      43.3
 5  COc1ccc(NC(=O)CSc2nc(-c3ccccc3Cl)ns2)cc1   inhibition     -1.47
 6  COc1ccc2nccc(N3CCC(NCCNCc4ccc5c(n4)NC(=O)CS5)C3)c2n1 (stereo unspecified)   inhibition      4.23
 7  Cc1cc(N(C)C)nc(Nc2ccc(NC(=O)c3cccc(F)c3)cc2)n1   inhibition      10.1
 8  Cc1cc(N(C)C)nc(Nc2ccc(NC(=O)COc3ccccc3)cc2)n1   inhibition      7.92
 9     Cc1cc(NC(=O)Nc2ccc(C#N)cc2)c2ccccc2n1   inhibition      4.35
10  CCCCc1ccc(C(=O)Nc2ccc3nc(N4CCN(C)CC4)cc(C)c3c2)cc1   inhibition      3.48
11  O=C(/C=C/c1ccc(Cl)c(Cl)c1)NCCCCCN1CCCC(C(=O)Nc2ccc(Cl)cc2)C1 (stereo unspecified)   inhibition      5.09
12  O=C(NC1CCN(Cc2ccccc2)CC1)c1cc(-c2cccnc2)nc2ccc(Cl)cc12   inhibition      6.45
13  CC(C)CNC(=O)c1cncc(-c2ccc(CNC3Cc4ccccc4C3)cc2)c1   inhibition      1.58
14              CC(=NNc1nc2ccccc2s1)c1ccccn1   inhibition      17.9
15  CCOc1cc(Cl)c(C(C)NC(=O)c2cccc(OC)c2)cc1OCC (stereo unspecified)   inhibition      7.46
16  O=S(=O)(NC1CCCCN(Cc2ccccc2O)C1)c1ccc(C(F)(F)F)cc1 (stereo unspecified)   inhibition      4.93
17        Cc1cc(Nc2ccccc2)nc(NCCOc2ccccc2)n1   inhibition      8.42
18  CN1CCN(c2ccc(Nc3c(C(N)=O)cnc4cc(-c5ccoc5)ccc34)cc2)CC1   inhibition      24.6
19  NS(=O)(=O)c1cccc(-c2ccc3nccc(-c4cccc(S(N)(=O)=O)c4)c3c2)c1   inhibition      0.59
20  CC(C)(C)C(=O)Nc1c(-c2cc(=O)oc3cc4c(cc23)CCC4)oc2ccccc12   inhibition       4.1
